# measured.on: CYP1A1 (Homo sapiens, UniProt P04798)
# Sequence (P04798 whole entry): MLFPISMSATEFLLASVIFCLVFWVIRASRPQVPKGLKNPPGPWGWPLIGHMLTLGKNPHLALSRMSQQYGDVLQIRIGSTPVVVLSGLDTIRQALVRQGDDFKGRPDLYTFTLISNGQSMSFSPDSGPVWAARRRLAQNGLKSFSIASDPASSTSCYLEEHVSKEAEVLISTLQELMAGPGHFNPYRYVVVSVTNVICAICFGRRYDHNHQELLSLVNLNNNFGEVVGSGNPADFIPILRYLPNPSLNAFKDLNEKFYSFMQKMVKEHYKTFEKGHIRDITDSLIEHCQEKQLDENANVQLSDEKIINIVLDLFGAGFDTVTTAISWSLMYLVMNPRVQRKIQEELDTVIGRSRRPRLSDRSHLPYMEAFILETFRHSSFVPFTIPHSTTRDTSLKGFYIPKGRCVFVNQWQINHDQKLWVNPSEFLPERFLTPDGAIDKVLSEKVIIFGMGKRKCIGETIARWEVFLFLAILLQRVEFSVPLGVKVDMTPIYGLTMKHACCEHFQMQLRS
# experimental.details: Inhibition of human recombinant CYP1A1 using 7-ethoxyresorufin as substrate assessed as percent enzyme activity at 1 uM after 15 mins in presence of NADPH by EROD assay relative to control
# Format: ADME
# Set-up: scale not given: the % may be the effect or the level left
# condition.notes: recombinant CYP1A1, probe 7-ethoxyresorufin, read-out: Activity
recorded.metric: activity at 0.25 h, 1 µM (%)
Answer format: numeric, % implied, no suffix.

Past entries and their recorded results:
C=C=C[C@H]1CC[C@@H](c2cc(=O)c3ccc4ccccc4c3o2)CC1 : 5.5
[N-]=[N+]=NCC1CCC(c2cc(=O)c3ccc4ccccc4c3o2)CC1 (mixture of isomers) : 6.3
O=c1cc([C@@H]2CCC[C@H](O)C2)oc2c1ccc1ccccc12 (relative stereo) : 71.3
O=c1cc([C@H]2CC[C@H](S)CC2)oc2c1ccc1ccccc12 : 1.3

O=c1cc(-c2ccc(S)cc2)oc2c1ccc1ccccc12 has a reported activity at 0.25 h, 1 µM of 71.3

CS(=O)(=O)O[C@H]1CC[C@@H](c2cc(=O)c3ccc4ccccc4c3o2)CC1 has a reported activity at 0.25 h, 1 µM of 66.1

[N-]=[N+]=N[C@H]1CC[C@H](c2cc(=O)c3ccc4ccccc4c3o2)CC1 has a reported activity at 0.25 h, 1 µM of 39.5
